Data provenance is the NIST ThermoML archive (doi:10.1021/je060339m).

Reported mass density values follow for various compounds
Settings: 333.15 K; 5000 kPa; Liquid
Express it in kg/m3; write the number only.

Some compounds with recorded mass density:
Compound	Unit abbrev	mass density
CCCOC(C)=O [propyl ethanoate]	kg/m3	848.3
CCCCCOC(C)=O [pentyl ethanoate]	kg/m3	842.7
CCCCOC(C)=O [butyl ethanoate]	kg/m3	844.9

Fill in the blank: the reported mass density of CCOC(C)=O [ethyl acetate] is ____.
856.8

----------
Conditions: 318.15 K; 30000 kPa; Liquid
Reported mass density values follow for various compounds
Express it in kg/m3; write the number only.

Some compounds with recorded mass density:
Compound	Unit abbrev	Observed result
CCCCOC(C)=O [butyl ethanoate]	kg/m3	881.3
CCCOC(C)=O [propyl ethanoate]	kg/m3	887.9
CCCCCOC(C)=O [pentyl ethanoate]	kg/m3	876.9

Fill in the blank: the reported mass density of CCOC(C)=O [ethyl acetate] is ____.
900.1

----------
Details: 383.15 K; 15000 kPa; Liquid
Value type: mass density (kg/m3)
Express it in kg/m3; write the number only.

Some compounds with recorded mass density:
Compound	mass density, kg/m3
CCCCCOC(C)=O [pentyl ethanoate]	806.6
CCCCOC(C)=O [butyl ethanoate]	806.7
CCCOC(C)=O [propyl ethanoate]	806.6

The record that follows has no mass density shown yet.
Fill in the blank: the reported mass density of CCOC(C)=O [ethyl acetate] is ____.
810.7

----------
Reported mass density values follow for various molecules
Conditions: 323.15 K; 15000 kPa; Liquid
Express it in kg/m3; write the number only.

Some molecules with recorded mass density:
Molecule	Unit abbrev	mass density
CCOC(C)=O [ethyl acetate]	kg/m3	879.4
CCCOC(C)=O [propyl ethanoate]	kg/m3	869
CCCCOC(C)=O [butyl ethanoate]	kg/m3	863.9

The record that follows has no mass density shown yet.
Fill in the blank: the reported mass density of CCCCCOC(C)=O [pentyl ethanoate] is ____.
860.2

----------
Conditions: 368.15 K; 1000 kPa; Liquid
Value type: mass density (kg/m3)
Express it in kg/m3; write the number only.

Molecule	Unit abbrev	Observed result
CCCCOC(C)=O [butyl ethanoate]	kg/m3	802.1
CCCCCOC(C)=O [pentyl ethanoate]	kg/m3	802.3
CCCOC(C)=O [propyl ethanoate]	kg/m3	801

The record that follows has no mass density shown yet.
Fill in the blank: the reported mass density of CCOC(C)=O [ethyl acetate] is ____.
804.9

----------
Reported mass density values follow for various molecules
Settings: 338.15 K; 35000 kPa; Liquid
Express it in kg/m3; write the number only.

Some molecules with recorded mass density:
Molecule	Observed result
CCCCCOC(C)=O [pentyl ethanoate]	866.5
CCCOC(C)=O [propyl ethanoate]	875.5
CCOC(C)=O [ethyl acetate]	886.7

The record that follows has no mass density shown yet.
Fill in the blank: the reported mass density of CCCCOC(C)=O [butyl ethanoate] is ____.
870.1

----------
Conditions: 308.15 K; 35000 kPa; Liquid
Value type: mass density (kg/m3)
Express it in kg/m3; write the number only.

Some compounds with recorded mass density:
Compound	Unit abbrev	mass density
CCCOC(C)=O [propyl ethanoate]	kg/m3	902.3
CCCCOC(C)=O [butyl ethanoate]	kg/m3	894.8
CCOC(C)=O [ethyl acetate]	kg/m3	916.2

The record that follows has no mass density shown yet.
Fill in the blank: the reported mass density of CCCCCOC(C)=O [pentyl ethanoate] is ____.
889.7
